# credit: patent US12729192B2

biological target: CDK7 (Homo sapiens); construct: purchased Carna Biosciences, Inc; test: CDK7 kinase activity inhibition (ADP-Glo); type: biochemical; conditions: 10 μM ATP, 2 h at room temperature
Sequence (P50613 whole entry): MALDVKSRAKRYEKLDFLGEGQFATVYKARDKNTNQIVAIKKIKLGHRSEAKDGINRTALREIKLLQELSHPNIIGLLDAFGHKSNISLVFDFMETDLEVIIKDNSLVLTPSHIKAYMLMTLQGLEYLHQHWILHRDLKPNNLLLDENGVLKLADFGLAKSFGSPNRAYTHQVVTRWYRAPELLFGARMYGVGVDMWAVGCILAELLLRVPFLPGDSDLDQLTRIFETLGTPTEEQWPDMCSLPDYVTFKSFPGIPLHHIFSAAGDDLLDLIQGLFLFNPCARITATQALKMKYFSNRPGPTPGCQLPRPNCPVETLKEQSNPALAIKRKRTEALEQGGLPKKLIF
Sequence (P51946 whole entry partner): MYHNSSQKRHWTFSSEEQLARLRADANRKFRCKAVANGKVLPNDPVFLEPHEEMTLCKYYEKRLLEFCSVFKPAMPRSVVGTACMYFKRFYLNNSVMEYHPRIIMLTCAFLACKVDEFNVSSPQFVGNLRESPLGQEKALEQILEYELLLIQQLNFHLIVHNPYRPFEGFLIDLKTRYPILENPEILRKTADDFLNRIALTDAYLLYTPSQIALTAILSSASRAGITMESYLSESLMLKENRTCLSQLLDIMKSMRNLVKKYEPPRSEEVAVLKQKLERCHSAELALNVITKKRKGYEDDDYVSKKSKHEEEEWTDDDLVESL
Sequence (P51948 whole entry partner): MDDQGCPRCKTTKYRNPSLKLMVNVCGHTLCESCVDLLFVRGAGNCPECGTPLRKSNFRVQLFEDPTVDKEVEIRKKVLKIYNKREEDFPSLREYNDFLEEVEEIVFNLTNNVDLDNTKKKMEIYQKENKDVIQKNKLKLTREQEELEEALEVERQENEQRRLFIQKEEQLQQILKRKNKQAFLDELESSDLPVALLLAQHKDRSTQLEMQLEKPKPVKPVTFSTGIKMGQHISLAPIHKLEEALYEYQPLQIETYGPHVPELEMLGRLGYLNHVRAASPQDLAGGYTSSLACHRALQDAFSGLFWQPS
reported.endpoint: IC50 (nM)

1. Cc1ccc(Nc2cc(OC(F)(F)F)ccn2)nc1C(=O)N1CC(F)(F)CC[C@@H]1CN
2. Cc1ccc(Nc2cc(OC(F)(F)F)ccn2)nc1C(=O)N1CC(F)(F)CC[C@@H]1CNS(C)(=O)=O
**Q:** // pick larger IC50 from pair: 1 vs 2 Use the label to indicate which entry you chose.
**A:** 2

###

molecular target: CDK9 (Homo sapiens, UniProt P50750); experiment: CDK9 kinase activity inhibition (ADP-Glo); type: biochemical; settings: 10 μM ATP, 2 h at room temperature
Sequence (P50750 whole entry): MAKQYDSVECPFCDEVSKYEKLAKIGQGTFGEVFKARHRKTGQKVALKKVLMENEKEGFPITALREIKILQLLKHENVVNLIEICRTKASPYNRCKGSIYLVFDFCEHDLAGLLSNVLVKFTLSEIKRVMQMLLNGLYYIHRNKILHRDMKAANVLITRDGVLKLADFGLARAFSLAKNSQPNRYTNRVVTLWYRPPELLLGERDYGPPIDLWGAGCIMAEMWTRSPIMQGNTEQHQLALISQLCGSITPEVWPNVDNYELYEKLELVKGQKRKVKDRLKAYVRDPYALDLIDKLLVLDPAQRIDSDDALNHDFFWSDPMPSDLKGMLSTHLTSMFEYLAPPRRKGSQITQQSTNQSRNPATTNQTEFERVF
Sequence (O60563 whole entry partner): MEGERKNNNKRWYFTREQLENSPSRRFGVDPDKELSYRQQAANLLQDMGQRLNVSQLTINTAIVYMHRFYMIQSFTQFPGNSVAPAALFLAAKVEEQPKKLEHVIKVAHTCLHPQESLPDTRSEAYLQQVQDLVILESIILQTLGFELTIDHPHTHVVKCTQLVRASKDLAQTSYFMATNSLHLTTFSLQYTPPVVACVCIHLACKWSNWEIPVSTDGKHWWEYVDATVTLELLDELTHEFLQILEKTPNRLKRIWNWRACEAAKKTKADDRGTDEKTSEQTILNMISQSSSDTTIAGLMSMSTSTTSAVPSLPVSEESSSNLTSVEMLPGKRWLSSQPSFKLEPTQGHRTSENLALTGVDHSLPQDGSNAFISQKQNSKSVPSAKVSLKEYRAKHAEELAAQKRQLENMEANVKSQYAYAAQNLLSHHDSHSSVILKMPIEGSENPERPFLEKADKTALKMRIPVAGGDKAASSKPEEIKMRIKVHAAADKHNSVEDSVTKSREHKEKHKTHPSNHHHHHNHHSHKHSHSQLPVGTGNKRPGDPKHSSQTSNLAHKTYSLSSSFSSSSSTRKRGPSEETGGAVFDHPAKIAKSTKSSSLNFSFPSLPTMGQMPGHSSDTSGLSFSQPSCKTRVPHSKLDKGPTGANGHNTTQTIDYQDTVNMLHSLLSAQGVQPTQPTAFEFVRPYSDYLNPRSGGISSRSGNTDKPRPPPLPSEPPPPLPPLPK
reported.endpoint: IC50 (nM)

**Q:** Which IC50 value belongs to CCOc1ccnc(Nc2ccc(C)c(C(=O)N3CC(F)(F)CC[C@@H]3CNC(=O)OC)n2)c1 [Compound 53] ?
**A:** 19.7

a. Cc1ccc(Nc2cc(OC(F)(F)F)ccn2)nc1C(=O)N1CC(F)(F)CC[C@@H]1CNC(=O)C1CC1 [Compound 51]
b. Cc1ccc(Nc2cc(OC(F)(F)F)ccn2)nc1C(=O)N1CC(F)(F)CC[C@@H]1CNS(C)(=O)=O [Compound 32]
c. CC(=O)NC[C@H]1CCC(F)(F)CN1C(=O)c1nc(Nc2cc(C3CC(F)(F)C3)[nH]n2)ccc1C [Compound 15]
d. CC(=O)NC[C@H]1CCC(F)(F)CN1C(=O)c1nc(Nc2cc(OC3CCC3)ccn2)ccc1C [Compound 16]
e. Cc1ccc(Nc2cc(OC(F)(F)F)ccn2)nc1C(=O)N1CCCN2CCCC2C1 (stereo not drawn) [Compound 46]
**Q:** Arrange these compounds by their IC50, starting with the largest number. Quick reminder: the answer is the labels in the order asked.
**A:** e, d, b, a, c

a. CC(=O)NC[C@H]1CCC(F)(F)CN1C(=O)c1nc(Nc2cc(C(F)F)ccn2)ccc1C [Compound 27]
b. CC(=O)NC[C@H]1CCC(F)(F)CN1C(=O)c1nc(Nc2cc(C(C)(C)C)ccn2)ccc1C [Compound 17]
**Q:** Field: entry with larger IC50 (options a / b ). Please respond with the label that marks your chosen entry.
**A:** b
(b: 19.2 nM, a: 5.8 nM)

A. Cc1ccc(Nc2cc(OC(F)(F)F)ccn2)nc1C(=O)N1CC(F)(F)CC[C@@H]1CNC(=O)OC(C)(C)C [Compound 33]
B. Cc1ccc(Nc2cc(C#N)ccn2)nc1C(=O)N1CC(F)(F)CC[C@@H]1CNC(=O)OC(C)(C)C [Compound 31]
**Q:** Short answer wanted: higher IC50, A or B ? Use the label to indicate which entry you chose.
**A:** A
(A: 38 nM, B: 3.7 nM)

I. CC(=O)NC[C@H]1CCC(F)(F)CN1C(=O)c1nc(Nc2cc(C(F)(F)F)ccn2)ccc1C [Compound 30]
II. CC(=O)NC[C@H]1CCC(F)(F)CN1C(=O)c1nc(Nc2ncccn2)ccc1C [Compound 23]
**Q:** // max by IC50 over [ I , II ] Answer by quoting the chosen item's label.
**A:** II
(II: 4620 nM, I: 11.7 nM)

###

target: CDK2 (Homo sapiens, UniProt P24941); construct: purchased Carna Biosciences, Inc; assay: CDK2 kinase activity inhibition (ADP-Glo); format: biochemical; details: 10 μM ATP, 2 h at room temperature
reported.endpoint: IC50 (nM)

Below, 6 compounds whose answers are already recorded.
**Q:** Return reported IC50; argument: CC(=O)NC[C@H]1CCC(F)(F)CN1C(=O)c1nc(Nc2cc(C3CCCC3)ccn2)ccc1C [Compound 20]
**A:** 1230

**Q:** Param item: CC(=O)NC[C@H]1CCC(F)(F)CN1C(=O)c1nc(Nc2cc(OC(F)(F)F)ccn2)ccc1F [Compound 64]
**A:** 120

**Q:** Can you check NC[C@H]1CCC(F)(F)CN1C(=O)c1nc(Nc2cc(OC(F)(F)F)ccn2)ccc1F [Compound 67] next?
**A:** 61.2

**Q:** # iterate: CC(=O)NC[C@H]1CCC(F)(F)CN1C(=O)c1nc(Nc2cc(CF)ccn2)ccc1C [Compound 28]
**A:** 1260

**Q:** Try the compound Cc1ccc(Nc2cc(OC(F)(F)F)ccn2)nc1C(=O)N1CCCC(F)(F)CC1 [Compound 38]
**A:** 447

**Q:** What about CC(=O)NC[C@H]1CCC(F)(F)CN1C(=O)c1cccc(Nc2cc(OC(F)(F)F)ccn2)n1 [Compound 80] ?
**A:** 258

A. CC(=O)NC[C@H]1CCC(F)(F)CN1C(=O)c1nc(Nc2cc(C(C)(C)C)sn2)ccc1C [Compound 13]
B. CC(=O)NC[C@H]1CCC(F)(F)CN1C(=O)c1nc(Nc2cc(C(F)(F)F)ccn2)ccc1C [Compound 30]
**Q:** Pick one: A or B . Which one has the lower reported IC50? // respond with label for picked entry
**A:** B

###

target: CDK1 (Homo sapiens, UniProt P06493); construct: purchased Carna Biosciences, Inc; experiment: CDK1 kinase activity inhibition (ADP-Glo); assay type: biochemical; settings: 50 μM ATP, 2 h at room temperature
Sequence (P06493 whole entry): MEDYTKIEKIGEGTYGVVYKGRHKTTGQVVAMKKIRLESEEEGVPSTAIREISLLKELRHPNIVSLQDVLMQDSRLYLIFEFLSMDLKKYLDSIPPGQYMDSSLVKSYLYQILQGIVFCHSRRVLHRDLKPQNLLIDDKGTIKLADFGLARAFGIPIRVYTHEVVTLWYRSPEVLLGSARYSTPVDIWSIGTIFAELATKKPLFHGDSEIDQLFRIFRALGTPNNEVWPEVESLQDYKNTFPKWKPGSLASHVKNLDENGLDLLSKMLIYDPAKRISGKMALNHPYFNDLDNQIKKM
Sequence (P14635 whole entry partner): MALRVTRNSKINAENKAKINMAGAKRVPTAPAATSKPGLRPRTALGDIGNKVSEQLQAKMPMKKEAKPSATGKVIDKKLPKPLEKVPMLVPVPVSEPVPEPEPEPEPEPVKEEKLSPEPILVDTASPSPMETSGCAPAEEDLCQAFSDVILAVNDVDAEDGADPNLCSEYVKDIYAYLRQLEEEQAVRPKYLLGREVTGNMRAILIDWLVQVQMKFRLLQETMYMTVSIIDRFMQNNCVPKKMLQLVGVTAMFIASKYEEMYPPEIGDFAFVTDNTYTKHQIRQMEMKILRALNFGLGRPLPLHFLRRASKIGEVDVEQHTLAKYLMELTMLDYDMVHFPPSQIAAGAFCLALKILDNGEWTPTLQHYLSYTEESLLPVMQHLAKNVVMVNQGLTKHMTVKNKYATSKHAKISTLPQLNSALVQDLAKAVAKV
reported.endpoint: IC50 (nM)

**Q:** So what's the measured IC50 for this one? `Cc1ccc(Nc2cc(OC(F)(F)F)ccn2)nc1C(=O)N1CC(F)(F)CC[C@@H]1CNS(C)(=O)=O`
**A:** 1390

I. Cc1ccc(Nc2cc(C#N)ccn2)nc1C(=O)N1CC(F)(F)CC[C@@H]1CNC(=O)OC(C)(C)C
II. CC(=O)NC[C@H]1CCC(F)(F)CN1C(=O)c1nc(Nc2cc(C(F)F)ccn2)ccc1C
III. NC[C@H]1CCC(F)(F)CN1C(=O)c1nc(Nc2cc(OC(F)(F)F)ccn2)ccc1F
IV. CC(=O)NC[C@H]1CCC(F)(F)CN1C(=O)c1nc(Nc2cc(C(F)(F)F)ccn2)ccc1C
**Q:** Please put the entries in order of rising IC50. To answer, write out the labels according to the requested order.
**A:** III, IV, II, I
(III: 140 nM, IV: 291 nM, II: 426 nM, I: 1470 nM)

###

biological target: CDK2 (Homo sapiens, UniProt P24941); construct: purchased Carna Biosciences, Inc; assay: CDK2 kinase activity inhibition (ADP-Glo); assay type: biochemical; conditions: 10 μM ATP, 2 h at room temperature
reported.endpoint: IC50 (nM)

**Q:** Quick check: IC50 on CDK2 (Homo sapiens, UniProt P24941), item `CC(=O)N[C@@H]1CN(C(=O)c2nc(Nc3cc(OC(F)(F)F)ccn3)ccc2C)CC(F)(F)C1` ?
**A:** 361

**Q:** And what about the compound `CC(=O)NC[C@H]1CCC(F)(F)CN1C(=O)c1nc(Nc2cc(-c3cnn4c3CCC4)ccn2)ccc1C` ?
**A:** 3310

**Q:** Moving on to `CC(=O)NC[C@H]1CCC(F)(F)CN1C(=O)c1nc(Nc2cc(OC(F)(F)F)ccn2)ccc1Cl`
**A:** 577

**Q:** Also `CC(=O)NC[C@H]1CCC(F)(F)CN1C(=O)c1nc(Nc2cc(OC3CCC3)ccn2)ccc1C` , if possible.
**A:** 6350

**Q:** // repeat for `CC(=O)NC[C@H]1CCC(F)(F)CN1C(=O)c1nc(Nc2cc(OC(F)F)ccn2)ccc1C` and report
**A:** 368

**Q:** Next record, please: CC(=O)NCC1CCC(F)(F)CN1C(=O)c1nc(Nc2cc(OC(F)(F)F)ccn2)ccc1C (stereo not drawn)
**A:** 679

**Q:** Param item: `Cc1ccc(Nc2cc(OC(F)(F)F)ccn2)nc1C(=O)N1CC(F)(F)CC[C@@H]1CN1CCCC1=O`
**A:** 2870

**Q:** `CCOc1ccnc(Nc2ccc(C)c(C(=O)N3CC(F)(F)CC[C@@H]3CNC(C)=O)n2)c1` ?
**A:** 6840

A. CC(=O)NC[C@H]1CCC(F)(F)CN1C(=O)c1nc(Nc2cc(C3CC(F)(F)C3)[nH]n2)ccc1C
B. COc1cc(F)ccc1-c1cc(Nc2cc(CS(C)(=N)=O)ccn2)ncc1F (stereo not drawn) [BAY1251152, reference compound]
**Q:** Sorting by IC50 in descending order, would A or B appear first? Indicate which entry you chose by stating its label.
**A:** B
(B: 811 nM, A: 12 nM)

A. CC(=O)NC[C@H]1CCC(F)(F)CN1C(=O)c1nc(Nc2cc(C(C)(C)C)ccn2)ccc1C
B. Cc1ccc(Nc2cc(OC(F)(F)F)ccn2)nc1C(=O)N1CCCN2CCCC2C1 (stereo not drawn)
**Q:** Which entry has a larger number for IC50, A or B ? Give the label under which the chosen entry appears.
**A:** A

1. CCOc1ccnc(Nc2ccc(C)c(C(=O)N3CC(F)(F)CC[C@@H]3CN)n2)c1
2. Cc1ccc(Nc2cc(OC(F)(F)F)ccn2)nc1C(=O)N1CC(F)(F)CCC1C(=O)N1CCCC1 (stereo not drawn)
**Q:** Between these two entries, 1 and 2 , state which has the higher IC50. Please identify the chosen entry by its label.
**A:** 1
